target: Androgen receptor (AR) (Homo sapiens, UniProt P10275)
Sequence (P10275 1-920): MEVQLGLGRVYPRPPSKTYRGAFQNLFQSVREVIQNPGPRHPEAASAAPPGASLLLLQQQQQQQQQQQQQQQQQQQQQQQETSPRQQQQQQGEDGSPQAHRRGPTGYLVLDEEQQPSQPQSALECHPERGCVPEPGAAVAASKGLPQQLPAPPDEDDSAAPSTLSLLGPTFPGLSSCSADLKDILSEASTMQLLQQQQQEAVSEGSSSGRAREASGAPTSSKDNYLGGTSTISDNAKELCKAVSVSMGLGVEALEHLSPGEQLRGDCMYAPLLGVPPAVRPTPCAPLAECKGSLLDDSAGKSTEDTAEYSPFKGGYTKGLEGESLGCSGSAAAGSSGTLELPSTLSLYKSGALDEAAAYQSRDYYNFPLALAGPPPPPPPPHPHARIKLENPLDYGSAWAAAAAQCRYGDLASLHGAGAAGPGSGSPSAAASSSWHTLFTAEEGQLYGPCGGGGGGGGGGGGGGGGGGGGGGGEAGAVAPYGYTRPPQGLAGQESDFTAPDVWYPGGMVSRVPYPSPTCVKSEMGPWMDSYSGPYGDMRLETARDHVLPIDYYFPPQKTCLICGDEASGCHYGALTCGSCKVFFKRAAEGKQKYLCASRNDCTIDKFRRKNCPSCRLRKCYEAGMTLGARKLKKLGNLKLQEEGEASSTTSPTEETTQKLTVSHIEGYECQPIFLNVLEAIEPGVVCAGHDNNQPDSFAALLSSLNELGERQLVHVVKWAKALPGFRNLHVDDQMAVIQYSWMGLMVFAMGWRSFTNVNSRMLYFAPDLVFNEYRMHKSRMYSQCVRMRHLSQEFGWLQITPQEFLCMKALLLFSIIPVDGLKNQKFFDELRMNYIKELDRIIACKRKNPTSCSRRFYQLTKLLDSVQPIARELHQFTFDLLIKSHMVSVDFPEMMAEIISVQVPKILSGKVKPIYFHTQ
protocol_summary: Androgen receptor (AR) reporter gene assay (luciferase)
study_conditions: AR+ARE/Luc HEK293T cells, stimulated with 11-KDHT, 24h incubation, Bright-Lite luminescence; read-out: HEK293 Luc IC50
This listing pairs molecules with measured IC50.

These solved cases illustrate the format of a correct answer.
ClCCOc1c(Cl)cc2c(c1Cl)CCCN2c1ccc2[nH]ncc2c1 :: 500 to 1000 nM
Cn1nc(C2CCCc3c2cc(C#N)c(OCCCl)c3Cl)c2ccccc21 (stereo not shown) :: 1000 to 2000 nM
Oc1ccc(C2CCCc3c2cc(Cl)c(OCCCl)c3Cl)c(F)c1 (stereo not shown) :: 1 to 500 nM
N#Cc1cc2c(c(Cl)c1OCCCl)CCCC2c1cnc2[nH]ncc2c1 (stereo not shown) [HANT-150B] :: > 2000 nM
ClCCOc1c(Cl)cc2c(c1Cl)CCCC2N1CCc2cn[nH]c2C1 (stereo not shown) :: 500 to 1000 nM

Query string: Need IC50 of Oc1ccc(C2CCCc3c2cc(Cl)c(OCCCl)c3Cl)cc1 (stereo not shown) [HANT-336A] , thanks.
Result string: 500 to 1000 nM

Query string: How about N#Cc1cc2c(c(Cl)c1OCCCl)CCCC2c1ccc2[nH]ncc2c1 (stereo not shown) [HANT-144B] ?
Result string: 1 to 500 nM

Query string: // repeat for N#Cc1cc2c(c(Cl)c1OCCCl)CCCC2Nc1ccc(OCCO)nc1 (stereo not shown) and report
Result string: 1 to 500 nM

Query string: Another molecule to look at: N#Cc1cc2c(c(Cl)c1OCCC(F)(F)F)CCCC2c1cnc2[nH]ncc2c1 (stereo not shown)
Result string: 1000 to 2000 nM

Query string: Consider next the molecule N#Cc1cc2c(c(Cl)c1OCCCl)CCCC2c1ccc2[nH]ncc2c1 (stereo not shown) [HANT-144A] in the same way.
Result string: > 2000 nM

Query string: And then N#Cc1cc2c(c(Cl)c1OCCCl)CCCC2c1cc2c3c(cccc3c1)NC2=O (stereo not shown) , what is it?
Result string: 500 to 1000 nM

Query string: What do we get for COc1ccc(C2CCCc3c2cc(C#N)c(OCCCl)c3Cl)cc1 (stereo not shown) ?
Result string: 1 to 500 nM

Query string: Also check CC(=O)Nc1ccc(C2CCCc3c2cc(C#N)c(OCCCl)c3Cl)cn1 (stereo not shown)
Result string: 1 to 500 nM

Query string: Param item: N#Cc1cc2c(c(Cl)c1OCCCl)CCCC2c1cnc(N)cn1 (stereo not shown)
Result string: 500 to 1000 nM

Query string: Now the same for N#Cc1ccc(C(=O)NC2CCCc3c2cc(C#N)c(OCCCl)c3Cl)cc1 (stereo not shown)
Result string: 1 to 500 nM

Query string: Same lookup for N#Cc1cc2c(c(Cl)c1OCCCl)CCC[C@@H]2c1cnc(N)nc1 [HANT-204A] , please.
Result string: > 2000 nM

Query string: How about N#Cc1cc2c(c(Cl)c1OCCCl)CCCC2Nc1cc2cn[nH]c2cn1 (stereo not shown) ?
Result string: 1 to 500 nM

Query string: And then N#Cc1cc2c(c(Cl)c1OCCCl)CCCC2NC(=O)c1cc[nH]n1 (stereo not shown) , what is it?
Result string: 500 to 1000 nM

Query string: Please do the same for N#Cc1cc2c(c(Cl)c1OCCCl)CCCC2c1cnc2[nH]c(=O)oc2c1 (stereo not shown) as well.
Result string: 500 to 1000 nM
